Item-by-item account of Emax
# target_system: FPR3 (Homo sapiens, UniProt P25089)
# Sequence (P25089 whole entry): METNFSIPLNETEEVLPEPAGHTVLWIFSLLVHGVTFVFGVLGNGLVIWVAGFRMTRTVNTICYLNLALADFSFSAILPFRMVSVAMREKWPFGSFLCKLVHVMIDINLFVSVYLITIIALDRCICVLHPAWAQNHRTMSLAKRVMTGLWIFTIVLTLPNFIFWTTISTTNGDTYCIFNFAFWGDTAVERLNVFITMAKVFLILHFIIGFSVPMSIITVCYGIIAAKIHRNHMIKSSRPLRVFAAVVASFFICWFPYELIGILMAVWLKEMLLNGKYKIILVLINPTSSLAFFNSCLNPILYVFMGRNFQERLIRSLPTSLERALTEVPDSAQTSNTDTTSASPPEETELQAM
# experimental_details: Ca2+ mobilization assay in FPR3-HL60 cells
# Assay type: cell-based
# test_settings: read-out: Ca2+ flux FPR3-HL60 efficacy

{"test_smiles": "Cc1nn(CC(=O)Nc2ccc(Br)cc2)c(=O)cc1-c1ccccc1", "Emax / %": 95}
{"test_smiles": "COc1ccc(-c2csc(=O)n2CC(=O)Nc2ccc(Br)cc2)cc1", "Emax / %": 85}
{"test_smiles": "COc1ccc(Cc2c(C)c(C)nn(CC(=O)Nc3ccc(Br)cc3)c2=O)cc1", "Emax / %": 100}
{"test_smiles": "CCCc1c(C)nn(CC(=O)Nc2ccc(Br)cc2)c(=O)c1Cc1cccc(OC)c1", "Emax / %": 65}
{"test_smiles": "CCc1c(C)nn(CC(=O)Nc2ccc(Br)cc2)c(=O)c1Cc1cccc(OC)c1", "Emax / %": 100}

---

# Tested on: mouse neutrophils
# experimental_details: Ca2+ mobilization assay in mouse neutrophils
# Type: cell-based
# test_settings: % of the response induced by 10 nM WKYMVm

{"compound": "Cc1nn(CC(=O)Nc2ccc(Br)cc2)c(=O)cc1-c1ccccc1", "target_system": "mouse neutrophils", "Ca2+ flux mouse neutrophils efficacy, %": 75}
{"compound": "CC1=NN(CC(=O)Nc2ccc(Br)cc2)C(=O)CC1c1ccccc1 (racemic) [(±)-6b]", "target_system": "mouse neutrophils", "Ca2+ flux mouse neutrophils efficacy, %": 160}
{"compound": "Cc1cc(=O)n(CC(=O)Nc2ccc(Br)cc2)nc1C", "target_system": "mouse neutrophils", "Ca2+ flux mouse neutrophils efficacy, %": 70}
{"compound": "COc1cccc(Cc2c(-c3ccccc3)c(C)nn(CC(=O)Nc3ccc(Br)cc3)c2=O)c1", "target_system": "mouse neutrophils", "Ca2+ flux mouse neutrophils efficacy, %": 95}

---

# target_system: FPR3 (Homo sapiens, UniProt P25089)
# experimental_details: Ca2+ mobilization assay in FPR3-HL60 cells
pEC50: −log10 of the molar value.
property_label: pEC50

{"test_smiles": "COc1cccc(-c2csc(=O)n2CC(=O)Nc2ccc(Br)cc2)c1", "reading": 5.29}
{"test_smiles": "COc1ccc(-c2csc(=O)n2CC(=O)Nc2ccc(Br)cc2)cc1", "reading": 4.44}
{"test_smiles": "Cc1nn(CC(=O)Nc2ccc(Br)cc2)c(=O)cc1-c1ccccc1", "reading": 6.01}
{"test_smiles": "O=C(Cn1c(-c2ccccc2)csc1=O)Nc1ccc(Br)cc1", "reading": 4.71}
{"test_smiles": "COc1cccc(Cc2c(C)c(C)nn(CC(=O)Nc3ccc(Br)cc3)c2=O)c1", "reading": 7.40}
{"test_smiles": "CCc1c(C)nn(CC(=O)Nc2ccc(Br)cc2)c(=O)c1Cc1cccc(OC)c1", "reading": 5.39}
{"test_smiles": "Cc1csc(=O)n1CC(=O)Nc1ccc(Br)cc1", "reading": 4.56}
{"test_smiles": "COc1ccc(Cc2c(C)c(C)nn(CC(=O)Nc3ccc(Br)cc3)c2=O)cc1", "reading": 6.89}
{"test_smiles": "O=C(Cn1c(-c2cccc(Cl)c2)csc1=O)Nc1ccc(Br)cc1", "reading": 4.49}
{"test_smiles": "CCCc1c(C)nn(CC(=O)Nc2ccc(Br)cc2)c(=O)c1Cc1cccc(OC)c1", "reading": 5.47}

---

Item-by-item account of Emax
# target_system: FPR3 (Homo sapiens, UniProt P25089)
# experimental_details: Ca2+ mobilization assay in FPR3-HL60 cells
# Format: cell-based
# test_settings: read-out: Ca2+ flux FPR3-HL60 efficacy

{"molecule": "COc1cccc(-c2csc(=O)n2CC(=O)Nc2ccc(Br)cc2)c1 [9d]", "Emax, %": 100}
{"molecule": "Cc1csc(=O)n1CC(=O)Nc1ccc(Br)cc1 [9b]", "Emax, %": 85}
{"molecule": "COc1cccc(Cc2c(C)c(C)nn(CC(=O)Nc3ccc(Br)cc3)c2=O)c1 [4a]", "Emax, %": 165}
{"molecule": "O=C(Cn1c(-c2ccccc2)csc1=O)Nc1ccc(Br)cc1 [9c]", "Emax, %": 135}
{"molecule": "O=C(Cn1c(-c2cccc(Cl)c2)csc1=O)Nc1ccc(Br)cc1 [9f]", "Emax, %": 75}

---

# target_system: FPR2 (Homo sapiens, UniProt P25090)
# Sequence (P25090 whole entry): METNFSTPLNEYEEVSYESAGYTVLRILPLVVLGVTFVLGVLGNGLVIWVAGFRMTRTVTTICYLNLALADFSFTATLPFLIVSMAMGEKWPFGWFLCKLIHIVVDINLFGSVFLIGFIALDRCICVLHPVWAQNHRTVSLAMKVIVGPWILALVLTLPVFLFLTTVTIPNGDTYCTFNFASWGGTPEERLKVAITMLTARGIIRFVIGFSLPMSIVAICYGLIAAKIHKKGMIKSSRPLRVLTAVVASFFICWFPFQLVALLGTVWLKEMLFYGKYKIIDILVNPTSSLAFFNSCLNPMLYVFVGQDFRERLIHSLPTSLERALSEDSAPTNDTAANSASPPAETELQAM
# experimental_details: Ca2+ mobilization assay in FPR2-HL60 cells
Item-by-item account of EC50

{"compound": "Cc1csc(=O)n1CC(=O)Nc1ccc(Br)cc1 [9b]", "target_system": "FPR2 (Homo sapiens, UniProt P25090)", "unit_annotation": "nM", "EC50": 4100}
{"compound": "CC(=O)c1sc(=O)n(CC(=O)Nc2ccc(Br)cc2)c1C [9a]", "target_system": "FPR2 (Homo sapiens, UniProt P25090)", "unit_annotation": "nM", "EC50": 5800}
{"compound": "Cc1cc(=O)n(CC(=O)Nc2ccc(Br)cc2)nc1C [7a]", "target_system": "FPR2 (Homo sapiens, UniProt P25090)", "unit_annotation": "nM", "EC50": 510}
{"compound": "O=C(Cn1c(-c2ccccc2)csc1=O)Nc1ccc(Br)cc1 [9c]", "target_system": "FPR2 (Homo sapiens, UniProt P25090)", "unit_annotation": "nM", "EC50": 2100}
{"compound": "Cc1nn(CC(=O)Nc2ccc(Br)cc2)c(=O)cc1-c1ccccc1 [7b]", "target_system": "FPR2 (Homo sapiens, UniProt P25090)", "unit_annotation": "nM", "EC50": 150}
{"compound": "Nc1ccc(-c2csc(=O)n2CC(=O)Nc2ccc(Br)cc2)cc1 [compound 10]", "target_system": "FPR2 (Homo sapiens, UniProt P25090)", "unit_annotation": "nM", "EC50": 14700}
{"compound": "O=C(Cn1c(-c2cccc(Cl)c2)csc1=O)Nc1ccc(Br)cc1 [9f]", "target_system": "FPR2 (Homo sapiens, UniProt P25090)", "unit_annotation": "nM", "EC50": 3000}
{"compound": "COc1ccc(-c2csc(=O)n2CC(=O)Nc2ccc(Br)cc2)cc1 [9e]", "target_system": "FPR2 (Homo sapiens, UniProt P25090)", "unit_annotation": "nM", "EC50": 1800}

---

Item-by-item account of EC50
# target_system: FPR1 (Homo sapiens)
# Sequence (P21462 whole entry): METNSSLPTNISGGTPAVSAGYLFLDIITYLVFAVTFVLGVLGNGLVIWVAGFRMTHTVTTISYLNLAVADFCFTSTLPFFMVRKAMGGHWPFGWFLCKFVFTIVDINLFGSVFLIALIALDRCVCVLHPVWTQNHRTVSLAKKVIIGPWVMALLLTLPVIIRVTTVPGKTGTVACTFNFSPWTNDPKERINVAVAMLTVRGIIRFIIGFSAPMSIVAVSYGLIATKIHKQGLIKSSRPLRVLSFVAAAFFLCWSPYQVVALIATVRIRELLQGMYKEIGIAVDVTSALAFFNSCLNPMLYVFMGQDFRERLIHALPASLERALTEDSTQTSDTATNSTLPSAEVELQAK
# experimental_details: Ca2+ mobilization assay in FPR1-HL60 cells

{"test_smiles": "O=C(Cn1c(-c2ccccc2)csc1=O)Nc1ccc(Br)cc1", "unit_annotation": "µM", "EC50": 1.8}
{"test_smiles": "O=C(Cn1c(-c2cccc(Cl)c2)csc1=O)Nc1ccc(Br)cc1", "unit_annotation": "µM", "EC50": 6}
{"test_smiles": "Cc1cc(=O)n(CC(=O)Nc2ccc(Br)cc2)nc1C", "unit_annotation": "µM", "EC50": 5.7}
{"test_smiles": "Nc1ccc(-c2csc(=O)n2CC(=O)Nc2ccc(Br)cc2)cc1", "unit_annotation": "µM", "EC50": 34.9}
{"test_smiles": "Cc1csc(=O)n1CC(=O)Nc1ccc(Br)cc1", "unit_annotation": "µM", "EC50": 12.4}
{"test_smiles": "CC(=O)c1sc(=O)n(CC(=O)Nc2ccc(Br)cc2)c1C", "unit_annotation": "µM", "EC50": 8.9}
{"test_smiles": "COc1ccc(-c2csc(=O)n2CC(=O)Nc2ccc(Br)cc2)cc1", "unit_annotation": "µM", "EC50": 2.6}

---

# target_system: mouse Fpr2 (Mus musculus)
# Sequence (O88536 whole entry): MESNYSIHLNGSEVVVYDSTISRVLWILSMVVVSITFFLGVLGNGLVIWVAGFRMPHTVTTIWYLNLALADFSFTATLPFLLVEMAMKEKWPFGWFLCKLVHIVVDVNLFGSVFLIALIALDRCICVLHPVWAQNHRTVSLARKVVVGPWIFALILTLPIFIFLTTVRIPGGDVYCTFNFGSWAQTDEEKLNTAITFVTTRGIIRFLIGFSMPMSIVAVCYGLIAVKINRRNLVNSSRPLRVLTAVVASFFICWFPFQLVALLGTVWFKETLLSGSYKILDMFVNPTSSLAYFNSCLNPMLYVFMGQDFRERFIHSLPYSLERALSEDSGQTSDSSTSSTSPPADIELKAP
# experimental_details: Ca2+ mobilization assay in mFpr2-RBL cells
pEC50: −log10 of the molar value.
property_label: pEC50

{"test_smiles": "COc1cccc(Cc2c(-c3ccccc3)c(C)nn(CC(=O)Nc3ccc(Br)cc3)c2=O)c1", "reading": 4.54}

---

# target_system: FPR2 (Homo sapiens, UniProt P25090)
# experimental_details: Ca2+ mobilization assay in FPR2-HL60 cells
# Type: cell-based
# test_settings: read-out: Ca2+ flux FPR2-HL60 efficacy
Item-by-item account of Emax

{"test_smiles": "Cc1csc(=O)n1CC(=O)Nc1ccc(Br)cc1", "target_system": "FPR2 (Homo sapiens, UniProt P25090)", "Emax [%]": 80}
{"test_smiles": "O=C(Cn1c(-c2ccc(Cl)cc2)csc1=O)Nc1ccc(Br)cc1", "target_system": "FPR2 (Homo sapiens, UniProt P25090)", "Emax [%]": 75}
{"test_smiles": "Cc1cc(=O)n(CC(=O)Nc2ccc(Br)cc2)nc1C", "target_system": "FPR2 (Homo sapiens, UniProt P25090)", "Emax [%]": 90}
{"test_smiles": "CCCCc1c(C)nn(CC(=O)Nc2ccc(Br)cc2)c(=O)c1Cc1cccc(OC)c1", "target_system": "FPR2 (Homo sapiens, UniProt P25090)", "Emax [%]": 90}
{"test_smiles": "O=C(Cn1c(-c2ccccc2)csc1=O)Nc1ccc(Br)cc1", "target_system": "FPR2 (Homo sapiens, UniProt P25090)", "Emax [%]": 95}
